# credit: patent US11970498B2

Measured pIC50, listed per entry.
System tested: CDK1/Cyclin B1, GST-tag (Homo sapiens, UniProt P06493)
Construct: GST
Sequence (P06493 whole entry): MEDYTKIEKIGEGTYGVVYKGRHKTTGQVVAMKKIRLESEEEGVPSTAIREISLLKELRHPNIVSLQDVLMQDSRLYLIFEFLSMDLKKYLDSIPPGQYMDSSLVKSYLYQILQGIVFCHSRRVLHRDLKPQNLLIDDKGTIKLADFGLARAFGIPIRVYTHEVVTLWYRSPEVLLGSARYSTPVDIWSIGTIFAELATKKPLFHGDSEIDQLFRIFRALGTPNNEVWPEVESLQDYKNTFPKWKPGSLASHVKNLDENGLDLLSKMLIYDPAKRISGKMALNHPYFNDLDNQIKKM
Sequence (P14635 whole entry partner): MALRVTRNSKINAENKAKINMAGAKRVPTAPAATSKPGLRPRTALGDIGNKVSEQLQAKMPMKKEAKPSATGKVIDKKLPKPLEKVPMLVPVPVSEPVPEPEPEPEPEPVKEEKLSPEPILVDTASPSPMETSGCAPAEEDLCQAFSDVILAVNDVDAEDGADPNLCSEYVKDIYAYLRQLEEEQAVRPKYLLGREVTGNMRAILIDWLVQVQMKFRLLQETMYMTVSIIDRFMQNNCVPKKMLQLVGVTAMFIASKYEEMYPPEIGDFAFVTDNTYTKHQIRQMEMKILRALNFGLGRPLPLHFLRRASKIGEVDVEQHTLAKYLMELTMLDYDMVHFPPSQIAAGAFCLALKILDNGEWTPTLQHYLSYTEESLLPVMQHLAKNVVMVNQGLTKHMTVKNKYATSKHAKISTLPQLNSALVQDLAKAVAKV
Test description: CDK1/Cyclin B1 biochemical phosphorylation assay (Caliper mobility shift)
Reported conditions: apparent IC50; 1.0 mM ATP or ATP Km; 1.5 nM enzyme; 25° C.
pIC50: −log10 of the molar value.

In the examples that follow, each entry is paired with its recorded pIC50.
In [3]: df
Out[3]:
                                   compound   test_result
0  FC[C@@H](c1cccnc1)n1ncc2ncc(Nc3cc(OC(F)F)[nH]n3)nc21 (single isomer, unassigned)  6.30 to 7.00
1  C[C@@H](c1ccccc1F)n1ncc2ncc(Nc3cc(OC(F)F)[nH]n3)nc21        ≤ 6.30
2  C[C@@H](O)c1nn([C@@H](C)c2cccnc2)c2nc(Nc3cc(OC(F)F)[nH]n3)cnc12 (single isomer, unassigned) [Example 177]        ≤ 6.30

Exercise: Please look up its pIC50: Fc1cccc(Cn2ncc3ncc(Nc4cc(OC(F)F)[nH]n4)nc32)c1
Solution: ≤ 6.30

Exercise: Data request, read-out pIC50, for COc1cc(Nc2cnc3cnn([C@@H](C)c4ccccn4)c3n2)n[nH]1
Solution: ≤ 6.30

Exercise: Look up pIC50 for this compound: Fc1cncc(Cn2ncc3ncc(Nc4cc(OC(F)F)[nH]n4)nc32)c1
Solution: ≤ 6.30

Exercise: Query: pIC50; subject: C[C@@H]([C@H]1CCCOC1)n1ncc2ncc(Nc3cc(OC(F)F)[nH]n3)nc21 (single isomer, unassigned) [Example 217]
Solution: ≤ 6.30

Exercise: Query (compound): C[C@H](c1cc(F)ccn1)n1ncc2ncc(Nc3cc(OC(F)F)[nH]n3)nc21 (single isomer, unassigned) ; field requested: pIC50
Solution: ≤ 6.30

Exercise: Fill blank: measured pIC50 of the compound OC[C@@H](c1ccccc1)n1ncc2ncc(Nc3cc(OC(F)F)[nH]n3)nc21 is ____.
Solution: ≤ 6.30

Exercise: Returns the measured pIC50 for the input compound. Input: O[C@H]1CC[C@@H](n2ncc3ncc(Nc4cc(OC(F)F)[nH]n4)nc32)CC1
Solution: ≤ 6.30

Exercise: Which value of pIC50 has been reported for COc1cc(Nc2cnc3cnn([C@@H](C)c4cncs4)c3n2)n[nH]1 in the records?
Solution: ≤ 6.30

Exercise: Fill in the blank: the reported pIC50 of COc1cc(Nc2cnc3cnn([C@@H](C)C4CCOCC4)c3n2)n[nH]1 is ____.
Solution: 6.30 to 7.00

Exercise: I have this compound here, FC(F)Oc1cc(Nc2cnc3cnn(Cc4cncs4)c3n2)n[nH]1 , and I need its recorded pIC50.
Solution: ≤ 6.30

Exercise: What measured pIC50 goes with FC(F)Oc1cc(Nc2cnc3cnn(CC4CCCC4)c3n2)n[nH]1 ?
Solution: 6.30 to 7.00

Exercise: Bench note: what pIC50 did C[C@@H](c1cncs1)n1ncc2ncc(Nc3cc(OC(F)F)[nH]n3)nc21 show?
Solution: ≤ 6.30

Exercise: Reported pIC50 for C[C@H]([C@H]1CCOC1)n1ncc2ncc(Nc3cc(OC(F)F)[nH]n3)nc21 (single isomer, unassigned) : what is it?
Solution: > 7.00

Exercise: // lookup pIC50 for C[C@H](c1cccc(F)n1)n1ncc2ncc(Nc3cc(OC(F)F)[nH]n3)nc21 (single isomer, unassigned) [Example 155]
Solution: ≤ 6.30

Exercise: Entry COc1cc(Nc2cnc3cnn(Cc4cccnc4)c3n2)n[nH]1 has what pIC50?
Solution: ≤ 6.30

Exercise: // returns reported pIC50 for input C[C@@H](c1cccnc1F)n1nc(Cl)c2ncc(Nc3cc(OC(F)F)[nH]n3)nc21
Solution: 6.30 to 7.00

Exercise: Looking for the measured pIC50 of C[C@@H](c1cnccc1F)n1ncc2ncc(Nc3cc(OC(F)F)[nH]n3)nc21 (single isomer, unassigned) [Example 174] , can you help?
Solution: ≤ 6.30

Exercise: Record request: pIC50 value, item FC(F)Oc1cc(Nc2cnc3cnn(C[C@H]4CCCCO4)c3n2)n[nH]1
Solution: ≤ 6.30

Exercise: Which pIC50 is reported for this compound? N#CC1(Cn2ncc3ncc(Nc4cc(OC(F)F)[nH]n4)nc32)CCOCC1
Solution: ≤ 6.30

Exercise: Look up pIC50 for this compound: FC(F)Oc1cc(Nc2cnc3cnn(Cc4cccnn4)c3n2)n[nH]1
Solution: ≤ 6.30
